Values from PubChem BioAssay AID651581

Would you kindly list pIC50 for each of these compounds?
target: Endothelial PAS domain-containing protein 1 (Homo sapiens); assay: HIF-2a and HIF-1a reporter inhibition panel, dose response, selectivity assay for HIF-2a inhibitor project, cell-based, luminescence (AID 651581); conditions: HIF-2a PANC, run 2
pIC50: −log10 of the molar value.

Example entries begin here.
>  <compound>
COc1ccc(OCc2cccc(C(=O)O)c2)cc1

>  <test_system>
Endothelial PAS domain-containing protein 1 (Homo sapiens)

>  <pIC50>
> 4.52

$$$$
>  <compound>
COc1ccc(OC)c(S(=O)(=O)ON2C(=O)c3ccccc3C2=O)c1

>  <test_system>
Endothelial PAS domain-containing protein 1 (Homo sapiens)

>  <pIC50>
< 4.00

$$$$
>  <compound>
COC(=O)COc1ccc(-c2nccc(-c3ccc(Br)cc3)n2)cc1

>  <test_system>
Endothelial PAS domain-containing protein 1 (Homo sapiens)

>  <pIC50>
< 4.00

$$$$
>  <compound>
CC(C)(C)c1ccc(-c2noc(CCC(N)=O)n2)cc1

>  <test_system>
Endothelial PAS domain-containing protein 1 (Homo sapiens)

>  <pIC50>
> 6.52

$$$$
>  <compound>
O=Cc1cn(Cc2cccc([N+](=O)[O-])c2)c2ccccc12

>  <test_system>
Endothelial PAS domain-containing protein 1 (Homo sapiens)

>  <pIC50>
< 4.00

$$$$

Look at each compound and report its pIC50.
1. CC(C)(C)c1ccc(-c2noc(CCC(=O)NCC3CCCO3)n2)cc1 (stereo not given)
2. COc1ccc(OCc2cccc(C(=O)NN)c2)cc1
3. O=Cc1ccc(-c2cccs2)s1
4. CCOC(=O)Cc1csc(NC(=S)NC(=O)c2ccccc2)n1
5. C/C(=N/NC(=O)c1cc(C2CC2)[nH]n1)c1cccs1

Out:
["> 5.00", "< 4.00", "< 4.00", "> 5.00", "> 4.52"]

* * *

target: Endothelial PAS domain-containing protein 1 (Homo sapiens); assay: HIF-2a and HIF-1a reporter inhibition panel, dose response, selectivity assay for HIF-2a inhibitor project, cell-based, luminescence (AID 651581); conditions: HIF-2a PANC, mean of runs
Calls of active or inactive are those of the source. How the calls were made is not given here.
quantity_kind: IC50

Example entries begin here.
>  <compound_structure>
O=C(c1ccccc1)N1CCSc2sccc2C1=O

>  <test_system>
Endothelial PAS domain-containing protein 1 (Homo sapiens)

>  <IC50>
18.9 µM

$$$$
>  <compound_structure>
COC(=O)c1cccc(-c2noc(-c3ccccc3F)n2)c1

>  <test_system>
Endothelial PAS domain-containing protein 1 (Homo sapiens)

>  <IC50>
9.77 µM

$$$$
>  <compound_structure>
COc1ccc(CNC(=O)c2nc(S(=O)(=O)Cc3ccccc3)ncc2Cl)cc1

>  <test_system>
Endothelial PAS domain-containing protein 1 (Homo sapiens)

>  <IC50>
inactive

$$$$
>  <compound_structure>
Nc1ccc(-c2cc3ccccc3c(=O)o2)cc1

>  <test_system>
Endothelial PAS domain-containing protein 1 (Homo sapiens)

>  <IC50>
0.7 µM

$$$$

Look at each molecule and report its IC50.
1. Cc1c(CCC(=O)N2CCC[C@H]2C(=O)O)c(=O)oc2cc3oc4c(c3cc12)CCCC4
2. CCOC(=O)c1c(C)nn(-c2ccc(NC(=O)c3c(C)noc3C)cc2)c1C
3. CC(=O)/C=C1/C(=O)Nc2ccccc21

Out:
1.12 µM
inactive
> 99 µM (inactive)

* * *

molecular target: Hypoxia-inducible factor 1-alpha (Homo sapiens) (UniProt Q16665); assay: HIF-2a and HIF-1a reporter inhibition panel, dose response, selectivity assay for HIF-2a inhibitor project, cell-based, luminescence (AID 651581); conditions: HIF-1a, mean of runs
Sequence (Q16665 whole entry, looked up): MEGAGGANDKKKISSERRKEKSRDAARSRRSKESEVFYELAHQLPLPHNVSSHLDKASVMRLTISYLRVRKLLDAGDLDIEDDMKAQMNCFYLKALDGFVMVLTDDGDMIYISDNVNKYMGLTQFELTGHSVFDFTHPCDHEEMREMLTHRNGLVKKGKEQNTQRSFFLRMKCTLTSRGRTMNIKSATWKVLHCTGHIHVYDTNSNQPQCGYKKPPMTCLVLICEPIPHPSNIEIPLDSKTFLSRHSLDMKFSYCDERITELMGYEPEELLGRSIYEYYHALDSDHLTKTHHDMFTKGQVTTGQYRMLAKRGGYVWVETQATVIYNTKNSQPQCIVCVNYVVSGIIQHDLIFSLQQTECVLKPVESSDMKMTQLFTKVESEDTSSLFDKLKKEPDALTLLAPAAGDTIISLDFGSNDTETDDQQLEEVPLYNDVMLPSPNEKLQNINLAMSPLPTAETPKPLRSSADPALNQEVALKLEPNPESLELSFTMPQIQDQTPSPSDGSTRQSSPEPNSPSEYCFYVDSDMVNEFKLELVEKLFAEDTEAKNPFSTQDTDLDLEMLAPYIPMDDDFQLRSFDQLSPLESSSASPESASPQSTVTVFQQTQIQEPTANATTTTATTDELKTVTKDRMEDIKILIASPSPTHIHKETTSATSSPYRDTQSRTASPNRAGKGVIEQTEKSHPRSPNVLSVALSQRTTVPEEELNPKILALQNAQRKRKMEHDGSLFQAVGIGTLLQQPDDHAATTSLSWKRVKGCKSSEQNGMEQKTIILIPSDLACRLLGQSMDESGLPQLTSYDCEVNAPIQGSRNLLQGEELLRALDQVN
Active and inactive are the calls of the source. No rule for the calls is given here.
Thanks in advance; please answer with one of these: active, inactive

Examples from the recorded data:
>  <compound_structure>
CC(=O)N(C(C)=O)c1ccc(Oc2ccc(Oc3ccc(N(C(C)=O)C(C)=O)cc3)cc2)cc1

>  <group_label>
inactive

$$$$
>  <compound_structure>
O=C1C=C(c2ccccc2)C(=O)N1Nc1ccccc1

>  <group_label>
active

$$$$
>  <compound_structure>
Cc1ccc(NC(=O)c2cc(N3C(=O)C=CC3=O)ccc2N2CCOCC2)cc1Cl

>  <group_label>
active

$$$$
>  <compound_structure>
Cc1ccc(C(=O)c2cccc(N)c2)cc1C

>  <group_label>
active

$$$$
>  <compound_structure>
CC(=O)Nc1ccc(NC(=O)c2c([N+](=O)[O-])c(C(C)(C)C)nn2C)cc1

>  <group_label>
inactive

$$$$
>  <compound_structure>
Cc1c(CCC(=O)N2CCC[C@H]2C(=O)O)c(=O)oc2cc3oc4c(c3cc12)CCCC4

>  <group_label>
inactive

$$$$
>  <compound_structure>
CCOC(=O)c1cc(-c2csc(-c3ccc(C(C)(C)C)cc3)n2)on1

>  <group_label>
active

$$$$
>  <compound_structure>
CCNC(=O)NC(=O)COC(=O)CCCSc1nc2ccccc2s1

>  <group_label>
active

$$$$
>  <compound_structure>
COc1cc(/C=C/[N+](=O)[O-])ccc1O

>  <group_label>
inactive

$$$$
>  <compound_structure>
CNC(=O)NC(=O)COC(=O)CCCSc1nc2ccccc2s1

>  <group_label>
inactive

$$$$

In: Please share the test call associated with "O=C(O)c1ccc(N/N=C/c2ccc(C(F)(F)F)cc2)cc1" .
Out: inactive

In: Please share the test call associated with "Cc1nnnn1/C(=C\c1ccccc1)C(=O)OCC(=O)Nc1ccc(Cl)cc1F" .
Out: inactive

In: Please share the test call associated with "CC(C)(C)c1ccc(/C=N/Nc2ccc(C(=O)O)cc2)cc1" .
Out: inactive

* * *

target: Endothelial PAS domain-containing protein 1 (Homo sapiens); test: HIF-2a and HIF-1a reporter inhibition panel, dose response, selectivity assay for HIF-2a inhibitor project, cell-based, luminescence (AID 651581); details: HIF-2a, run 1
quantity_kind: IC50

Example entries begin here.
>  <compound_structure>
N#Cc1c(NC(=O)CSc2ncn[nH]2)sc2c1CCCCC2

>  <test_system>
Endothelial PAS domain-containing protein 1 (Homo sapiens)

>  <IC50>
< 300 nM

$$$$
>  <compound_structure>
Nc1ccc(-c2ncc(-c3ccccc3)o2)cc1

>  <test_system>
Endothelial PAS domain-containing protein 1 (Homo sapiens)

>  <IC50>
< 300 nM

$$$$

Now consider the entry below.
In: Need IC50, item "CN(C)c1ccc(Nc2nc(N)c3ccccc3n2)cc1"
Out: < 30000 nM

* * *

target: Endothelial PAS domain-containing protein 1 (Homo sapiens); test: HIF-2a and HIF-1a reporter inhibition panel, dose response, selectivity assay for HIF-2a inhibitor project, cell-based, luminescence (AID 651581); details: HIF-2a PANC, run 2
quantity_kind: IC50

Example entries begin here.
>  <compound_structure>
O=C1C=C(c2ccccc2)C(=O)N1Nc1ccccc1

>  <experimental_value>
> 99 µM

$$$$
>  <compound_structure>
CC(C)(C)c1ccc(-c2noc(CCC(=O)NCc3ccco3)n2)cc1

>  <experimental_value>
< 3 µM

$$$$
>  <compound_structure>
CCOC(=O)c1cc(-c2csc(-c3ccc(C(C)(C)C)cc3)n2)on1

>  <experimental_value>
> 99 µM

$$$$

Look at each compound and report its IC50.
1. O=C(O)c1cccc(COc2ccccc2Cl)c1
2. CC(C)c1ccc(/C=N/Nc2ccc(C(=O)O)cc2)cc1
3. O=C(NNc1nc2ccccc2o1)c1ccccc1
4. Cc1ccc(S(=O)(=O)Nc2cccc3cccnc23)cc1

Out:
1: > 99 µM; 2: < 1 µM; 3: > 99 µM; 4: > 99 µM

* * *

target: Endothelial PAS domain-containing protein 1 (Homo sapiens); assay: HIF-2a and HIF-1a reporter inhibition panel, dose response, selectivity assay for HIF-2a inhibitor project, cell-based, luminescence (AID 651581); conditions: HIF-2a PANC, run 2
Would you kindly list IC50 for each of these compounds?

>  <compound>
O=C(O)c1cccc(C(=O)Nc2cccc(NC(=O)C3CCCO3)c2)c1 (centres undefined)

>  <test_system>
Endothelial PAS domain-containing protein 1 (Homo sapiens)

>  <IC50>
> 99 µM

$$$$
>  <compound>
CC(C)(C)c1ccc(-c2noc(CCC(=O)Nc3cccnc3)n2)cc1

>  <test_system>
Endothelial PAS domain-containing protein 1 (Homo sapiens)

>  <IC50>
< 0.3 µM

$$$$

Look at each compound and report its IC50.
1. CC(=O)/C=C1/C(=O)Nc2ccccc21
2. CCOC(=O)c1cccc(NC(=O)/C=C/c2ccc3c(c2)OCO3)c1
3. O=C(Nc1ccc(NC(=S)NC(=O)c2ccco2)cc1)c1ccc(Br)cc1
4. CC(=O)Nc1ccc(OS(=O)(=O)c2c(C)cc(C)cc2C)cc1
5. O=C1C=CC(=O)N1c1ccccc1N1C(=O)C=CC1=O
6. COc1cc(/C=C/[N+](=O)[O-])ccc1O
7. O=C(O)c1cc(N/N=C/c2ccc3c(c2)OCCO3)ccc1Cl

Out:
1. > 99 µM
2. > 99 µM
3. > 99 µM
4. > 99 µM
5. > 99 µM
6. > 99 µM
7. > 99 µM
